List of IC50 tested on GRK5 (Homo sapiens, UniProt P34947).
Sequence (P34947 whole entry): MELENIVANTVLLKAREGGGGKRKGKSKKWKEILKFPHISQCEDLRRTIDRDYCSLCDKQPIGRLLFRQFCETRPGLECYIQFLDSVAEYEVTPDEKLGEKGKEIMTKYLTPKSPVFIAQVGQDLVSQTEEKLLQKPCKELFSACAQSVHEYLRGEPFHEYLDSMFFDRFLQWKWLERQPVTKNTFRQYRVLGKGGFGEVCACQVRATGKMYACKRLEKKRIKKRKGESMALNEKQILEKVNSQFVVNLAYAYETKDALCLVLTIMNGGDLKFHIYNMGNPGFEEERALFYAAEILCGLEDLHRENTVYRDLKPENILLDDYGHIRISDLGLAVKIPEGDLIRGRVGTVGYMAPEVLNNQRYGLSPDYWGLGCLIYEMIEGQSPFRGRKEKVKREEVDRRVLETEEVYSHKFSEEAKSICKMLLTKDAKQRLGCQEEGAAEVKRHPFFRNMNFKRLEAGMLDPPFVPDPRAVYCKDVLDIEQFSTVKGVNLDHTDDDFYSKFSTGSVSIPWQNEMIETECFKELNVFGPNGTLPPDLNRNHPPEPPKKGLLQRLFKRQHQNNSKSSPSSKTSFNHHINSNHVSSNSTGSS

Problem: Query: IC50; subject: N#C/C(=C\c1c[nH]c2ncccc12)C(=O)NCc1ccccc1C#N [Example 35]
Result: 100 to 500 nM

Problem: Would you mind doing COc1ccc([C@@H](C)NC(=O)/C(C#N)=C/c2c[nH]c3ncc(-c4cccc(CN(C)C)c4)cc23)cc1OC [Example 148] as well?
Result: ≤ 50 nM

Problem: Would you mind doing COc1ccc([C@@H](C)NC(=O)/C(C#N)=C/c2c[nH]c3ncc(-c4ccc(C5CCN(C)CC5)cc4)cc23)cc1OC [Example 132] as well?
Result: ≤ 50 nM

###

# Test Target: GRK2 (Homo sapiens, UniProt P25098)
# Construct: purchased Thermo Scientific
# Measurement Description: Lance Kinase Activity Assay, GRK2
# Measurement Conditions: biochemical Lance kinase activity assay; class symbols A-F; read-out: GRK2 LANCE Assay (IC-50)
Measurement Type: IC50

INSERT INTO results (compound, measurement_type, reported) VALUES
  ('COc1ccc([C@@H](C)NC(=O)/C(C#N)=C/c2c[nH]c3ncc(-c4cnn(C5CCN(C(=O)OC(C)(C)C)CC5)c4)cc23)cc1OC [Example 165]', 'IC50', '1 to 10 µM'),
  ('COc1ccc([C@@H](C)NC(=O)/C(C#N)=C\c2c[nH]c3ncc(-c4ccc(C#N)cc4)cc23)cc1OC [Example 140]', 'IC50', '> 10 µM'),
  ('N#C/C(=C\c1c[nH]c2ncc(Cl)cc12)C(=O)NCc1ccccc1 [Example 73]', 'IC50', '1 to 10 µM'),
  ('COc1ccc([C@@H](C)NC(=O)/C=C/c2c[nH]c3nccc(-c4cccc(CN(C)C)c4)c23)cc1OC [Example 224]', 'IC50', '> 10 µM'),
  ('COc1ccc([C@@H](C)NC(=O)/C=C/c2c[nH]c3ncc(-c4ccc(CN(C)C)cc4)cc23)cc1OC [Example 184]', 'IC50', '> 10 µM'),
  ('COc1ccc([C@@H](C)NC(=O)/C=C/c2c[nH]c3ncc(-c4ccnc(S(C)(=O)=O)c4)cc23)cc1OC [Example 250]', 'IC50', '1 to 10 µM'),
  ('COc1ccc([C@@H](C)NC(=O)/C(C#N)=C/c2c[nH]c3ncc(-c4cccc(OCCN(C)C)c4)cc23)cc1OC [Example 152]', 'IC50', '1 to 10 µM'),
  ('COc1ccc([C@@H](C)NC(=O)/C(C#N)=C/c2c[nH]c3ncc(N4CCN(C)CC4)cc23)cc1OC [Example 85]', 'IC50', '> 10 µM'),
  ('COc1ccc([C@@H](C)NC(=O)/C=C/c2c[nH]c3nccc(-c4cnn5ccccc45)c23)cc1OC [Example 242]', 'IC50', '> 10 µM'),
  ('COc1ccc([C@@H](C)NC(=O)/C=C/c2c[nH]c3ncc(-c4ccc(NS(C)(=O)=O)cc4)cc23)cc1OC [Example 187]', 'IC50', '1 to 10 µM');

Problem: Query: IC50; subject: COc1ccc([C@@H](C)NC(=O)/C=C/c2c[nH]c3ncc(-c4cccc(CN5CCN(C)CC5)c4)cc23)cc1OC [Example 183]
Result: > 10 µM

Problem: Would you mind doing COc1ccc([C@@H](C)NC(=O)/C(C#N)=C/c2c[nH]c3ncc(-c4ccc(C5CCN(C)CC5)cc4)cc23)cc1OC [Example 132] as well?
Result: 0.5 to 1 µM

Problem: Would you mind doing COc1ccc([C@@H](C)NC(=O)/C(C#N)=C/c2c[nH]c3ncc(-c4cccc(CN(C)C)c4)cc23)cc1OC [Example 148] as well?
Result: 1 to 10 µM

Problem: Would you mind doing COc1ccc([C@@H](C)NC(=O)/C(C#N)=C/c2c[nH]c3ncc(OC4CCOCC4)cc23)cc1OC [Example 111] as well?
Result: 1 to 10 µM

###

List of pIC50 tested on GRK2 (Homo sapiens, UniProt P25098).
pIC50: −log10 of the molar value.

INSERT INTO assay_data (smiles_entry, reported) VALUES
  ('N#C/C(=C\c1c[nH]c2ncccc12)C(=O)NCc1ccc(S(N)(=O)=O)cc1', '< 5.00'),
  ('COc1ccc([C@@H](C)NC(=O)/C=C/c2c[nH]c3ncc(-c4cccc(S(C)(=O)=O)c4)cc23)cc1OC', '5.00 to 6.00'),
  ('COc1ccc([C@@H](C)NC(=O)/C=C/c2c[nH]c3ncc(-c4cccc(OCCCN(C)C)c4)cc23)cc1OC', '6.00 to 6.30'),
  ('CC[C@H](C)Oc1cnc2[nH]cc(/C=C(\C#N)C(=O)N[C@H](C)c3ccc(OC)c(OC)c3)c2c1', '< 5.00'),
  ('COc1ccc([C@@H](C)NC(=O)/C(C#N)=C/c2c[nH]c3ncc(-c4cccc5cnn(C)c45)cc23)cc1OC', '< 5.00');

Problem: Query: pIC50; subject: COc1ccc([C@@H](C)NC(=O)/C=C/c2c[nH]c3ncc(-c4cc(Cl)cc(S(C)(=O)=O)c4)cc23)cc1OC
Result: < 5.00

Problem: Would you mind doing COc1ccc([C@@H](C)NC(=O)/C(C#N)=C/c2c[nH]c3ncc(-c4cnn(C)c4)cc23)cc1OC as well?
Result: 5.00 to 6.00

###

List of IC50 tested on GRK5 (Homo sapiens).

A selection of reference data follows.
INSERT INTO measurements (compound, reported) VALUES
  ('COc1ccc([C@@H](C)NC(=O)/C=C/c2c[nH]c3nccc(-c4cccc(CN(C)C)c4)c23)cc1OC [Example 224]', '100 to 500 nM'),
  ('COc1ccc([C@@H](C)NC(=O)/C=C/c2c[nH]c3ncc(-c4ccnc(S(C)(=O)=O)c4)cc23)cc1OC [Example 250]', '≤ 50 nM'),
  ('Cc1c(-c2cnn(C)c2)cnc2[nH]cc(/C=C(\C#N)C(=O)N[C@H](C)c3ccccc3)c12 [Example 97]', '500 to 1000 nM'),
  ('C[C@@H](NC(=O)/C(C#N)=C/c1c[nH]c2ncccc12)c1ccccc1 [Example 64]', '50 to 100 nM'),
  ('COc1ccc([C@@H](C)NC(=O)/C(C#N)=C/c2c[nH]c3ncc(-c4ccncc4)cc23)cc1OC [Example 143]', '≤ 50 nM'),
  ('CC(NC(=O)/C(C#N)=C/c1c[nH]c2ncccc12)c1ccccc1-n1cccn1 (stereo not shown) [Example 38]', '1000 to 10000 nM');

Next item in the queue.
Problem: Give IC50 (GRK5 (Homo sapiens)) of the following compound: COc1ccc([C@@H](C)NC(=O)/C=C/c2c[nH]c3ncc(-c4cccc(C(N)=O)c4)cc23)cc1OC [Example 189]
Result: ≤ 50 nM

###

Items are presented alongside their recorded IC50.
# Test Target: UniProt:P25098
# Sequence (P25098 1-689): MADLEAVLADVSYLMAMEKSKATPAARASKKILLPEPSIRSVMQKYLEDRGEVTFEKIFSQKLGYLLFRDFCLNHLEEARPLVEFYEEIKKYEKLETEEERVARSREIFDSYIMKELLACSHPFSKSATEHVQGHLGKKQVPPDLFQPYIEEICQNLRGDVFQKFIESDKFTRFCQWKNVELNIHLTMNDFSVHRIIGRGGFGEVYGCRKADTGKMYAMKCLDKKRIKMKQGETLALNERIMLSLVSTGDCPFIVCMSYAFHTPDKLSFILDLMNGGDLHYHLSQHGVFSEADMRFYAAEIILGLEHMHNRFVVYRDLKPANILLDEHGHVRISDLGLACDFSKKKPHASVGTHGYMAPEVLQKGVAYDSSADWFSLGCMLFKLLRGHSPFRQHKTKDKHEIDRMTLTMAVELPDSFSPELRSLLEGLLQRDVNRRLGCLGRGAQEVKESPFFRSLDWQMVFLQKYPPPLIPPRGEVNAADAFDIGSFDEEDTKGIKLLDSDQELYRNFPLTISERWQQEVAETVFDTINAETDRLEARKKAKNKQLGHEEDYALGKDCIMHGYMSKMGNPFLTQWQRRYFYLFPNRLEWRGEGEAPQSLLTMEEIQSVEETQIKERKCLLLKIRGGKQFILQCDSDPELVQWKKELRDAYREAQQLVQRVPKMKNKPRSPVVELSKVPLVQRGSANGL

INSERT INTO measurements (molecule, test_target, measurement_type, reported) VALUES
  ('COc1ccc([C@@H](C)NC(=O)/C=C/c2c[nH]c3ncc(-c4cn(C)nc4C)cc23)cc1OC', 'UniProt:P25098', 'IC50', '1 to 10 µM'),
  ('COc1ccc([C@@H](C)NC(=O)/C=C/c2c[nH]c3nccc(-c4ccc(NS(C)(=O)=O)cc4)c23)cc1OC', 'UniProt:P25098', 'IC50', '1 to 10 µM'),
  ('COc1ccc([C@@H](C)NC(=O)/C(C#N)=C/c2c[nH]c3ncc(-c4ccc5nc(C)cn5c4)cc23)cc1OC', 'UniProt:P25098', 'IC50', '1 to 10 µM'),
  ('COc1ccc([C@@H](C)NC(=O)/C(C#N)=C/c2c[nH]c3ncc(-c4ccc(N5CCN(C)CC5)cc4OC)cc23)cc1OC', 'UniProt:P25098', 'IC50', '0.5 to 1 µM'),
  ('COc1ccc([C@@H](C)NC(=O)/C(C#N)=C/c2c[nH]c3nccc(-c4cccc(CN(C)C)c4)c23)cc1OC', 'UniProt:P25098', 'IC50', '1 to 10 µM');

Problem: Query: IC50; subject: COc1ccc([C@@H](C)NC(=O)/C(C#N)=C/c2c[nH]c3ncc(-c4ccc(F)c(S(C)(=O)=O)c4)cc23)cc1OC
Result: 1 to 10 µM

Problem: Would you mind doing COc1ccc([C@@H](C)NC(=O)/C=C/c2c[nH]c3ncc(-c4cncc(S(C)(=O)=O)c4)cc23)cc1OC as well?
Result: > 10 µM

Values compiled from patent US20240294522A1.
